Each item that follows carries a reported GI50.
# Tested on: HOP-92
# TEST DESCRIPTION: NCI tumour cell line growth inhibition, 48 h
Active and inactive are the calls of the source. Cut-off read from the data, not from the text of the source: active = GI50 up to about 1.1 µM and inactive = higher.

Illustrative cases are given below, each with its answer.
>>> print(df.to_string())
                                   molecule  measured_target          assay_value
0  O=C1C2=Cc3ccccc3OC2(O)Oc2cc3ccccc3cc21 (configuration not stated)           HOP-92   74.3 µM (inactive)
1  N/N=C(\C(=O)Nc1ccc([N+](=O)[O-])cc1)C(C1=Nc2cc([N+](=O)[O-])ccc2NC1)[N+](=O)[O-] (configuration not stated)           HOP-92  > 100 µM (inactive)
2  Cc1ccc(-c2[nH]c(=O)n(C3OC(CO)C(O)C(O)C3O)c(=O)c2C#N)cc1 (configuration not stated)           HOP-92  > 100 µM (inactive)

# ---- query molecule ----
q: Quick one: GI50 for C=CCNC(=O)N(CCC)CCCC(NC(C)=O)C(=O)NCc1ccccc1 (configuration not stated) ?
a: > 100 µM (inactive)

* * *

# Test system: PC-3
# TEST DESCRIPTION: NCI tumour cell line growth inhibition, 48 h
Calls of active or inactive are those of the source. No stated cut-off is given here; in the data, active = GI50 up to about 1.1 µM and inactive = higher.
Just give me one of these, please: true = active, false = inactive

Please review the entries below; each comes with its answer.
MOLECULE	CATEGORY LABEL
CCOC(=O)c1cn(CC)c2ccc3c(c2c1=O)S(=O)(=O)C=C3	false
CC(O)(P(=O)(O)O)P(=O)(O)OCC(O)CN1CCOCC1 (centres undefined)	false
COc1ccccc1NC1=NCC(C)S1 (centres undefined)	false
CCOC(=O)C(=C(SC)SC)c1nn2c(=O)cc(C)nc2s1	false
O=C(CBr)NCCc1c[nH]c2ccccc12	false

q: Hi team, can someone confirm the assay call for C[C@]12[C@@H]3CC[C@H]1[C@@H](O)C(=O)N2CC3 ?
a: false

q: Check CC(C)SC1SCC2C(=O)N(C)C3(CC3C)C(=O)OCC(NC(=O)c3nc4ccccc4cc3O)C(=O)NC(C)C(=O)N(C)C1C(=O)N(C)C1(CC1C)C(=O)OCC(NC(=O)c1nc3ccccc3cc1O)C(=O)NC(C)C(=O)N2C (centres undefined) too.
a: true

q: // same read-out, input: OC1(c2ccc(Cl)cc2)c2ccc3ccccc3c2C2=N[C@H]3CCCC[C@@H]3N21 (some centres undefined)
a: false

q: Try the molecule Cc1nn(C(=O)c2ccc(Cl)cc2)c2c1C(c1ccccc1O)SC(=N)N2 (centres undefined)
a: false

q: Item: ON(Cc1ccccc1)C(=S)c1ccccc1
a: false

* * *

# Test system: SF-268
# TEST DESCRIPTION: NCI tumour cell line growth inhibition, 48 h
Activity calls are given as the source filed them. Rule as the data show it: active = GI50 up to about 1.1 µM and inactive = higher.
Result category, one only: active, inactive

Examples with answers:
>>> print(df.to_string())
                                   compound  measured_target  category_label
0  Clc1ccccc1C1N2CCCCC2[C@@H]2c3[nH]c4ccccc4c3CCN12 (stereo partly drawn)           SF-268        inactive
1  O=C(O)C(NCc1ccccc1)C(NCc1ccccc1)C(=O)O (stereo not drawn)           SF-268        inactive

Now consider a different compound.
q: Field: outcome | Entry: CC[C@@]1(O)C(=O)OCc2c1cc1n(c2=O)Cc2c-1nc1ccccc1c2/C=N\NC(=O)C(C)N (stereo partly drawn)
a: active

* * *

# System: Malme-3M
# TEST DESCRIPTION: NCI tumour cell line growth inhibition, 48 h
Calls of active or inactive are those of the source. Rule as the data show it: active = GI50 up to about 1.1 µM and inactive = higher.
Please answer using one outcome listed in true (1) = active, false (0) = inactive

q: Could you please tell me the result logged for O=C1C(CN2CCCCC2)CCCC1CN1CCCCC1 (centres undefined) in this assay?
a: false (0)

q: Subsequent entry: CCOC(=O)c1[nH]c(Br)c(-c2ccc(Br)cc2)c1Br
a: true (1)

q: Entry to check: Nc1ncnc2c1ncn2C1C(O)C=C(CO)C1O (centres undefined)
a: false (0)

* * *

# Tested on: DLD-1
# TEST DESCRIPTION: NCI tumour cell line growth inhibition, 48 h
Active and inactive are the calls of the source. Rule as the data show it: active = GI50 up to about 1.1 µM and inactive = higher.
Outcome (select one): active, inactive

>>> df
                                   compound  category_label
0  COC(=O)N/N=C(/CCC(=O)Nc1ccc(C)c(C)c1)CC(=O)C(C)(C)C        inactive
1  Clc1ccccc1C1N2CCCCC2[C@@H]2c3[nH]c4ccccc4c3CCN12 (some centres not stated)        inactive
2  N=C1NC(=O)N2CC12 (configuration not stated) [IMEXON]        inactive
3  N#CC1CC2(C1)OCCS2 (configuration not stated)        inactive
4       Cc1c(Cl)cccc1N1C(=O)C(Cl)=C(Cl)C1=O        inactive
5  CC1=CC=C2C(C)(C)CC[C@@H]3OC(=O)[C@H]1[C@]23C        inactive
6  NS(=O)(=O)c1ccc(NC2=CC(=O)C(=O)c3ccccc32)cc1        inactive
7  O=C(Nc1ccc(Cl)c(Cl)c1)C(=O)C(C(=O)c1ccccc1F)C1OC(=O)c2ccccc21 (configuration not stated)        inactive
8  CC(C)=CC(=O)OC1C2C(C)=CC(=O)C(O)C2(C)C2C3(O)OCC24C(CC(=O)OC14)C(C)C3O (configuration not stated)          active
9  O=C1OC(=O)C23CSCC12C1C=CC3O1 (configuration not stated)        inactive

q: Called result for CCC12CC[C@H](C#N)N3CCc4c(n(c5ccccc45)C(=O)C1)C32 (some centres not stated)
a: inactive

q: Thanks! And CCOC(=O)C[C@@]12CCCNC1(C)CCc1ccccc12 (some centres not stated) ?
a: inactive

q: What do you have for CCCOP(=S)(N1CC1)N1CC1 ?
a: inactive

q: Try the compound NC1=C(O)c2cccc3cccc(c23)C1=O
a: inactive

* * *

# Tested on: UACC-62
# TEST DESCRIPTION: NCI tumour cell line growth inhibition, 48 h
Calls of active or inactive are those of the source. No stated cut-off is given here; in the data, active = GI50 up to about 1.1 µM and inactive = higher.
Entry note: the call must match one of label 1 for active, label 0 for inactive

These recorded examples may help you get a feel for the data.
In [3]: df
Out[3]:
                                   compound  category_label
0  Cc1nn(C(=O)c2ccc(Cl)cc2)c2c1C(c1ccccc1O)SC(=N)N2 (stereo not drawn)         label 0
1  O=C(O)CCCc1ccc2c(c1)CC1(C2)Cc2ccc(CCCC(=O)O)cc2C1         label 0
2  COC1Cc2c(C)c(OC(C)=O)c3cccnc3c2O1 (stereo not drawn)         label 0

q: Can you look up the reported call for O=[N+]([O-])c1ccc(/C=N/C23CC4CC(CC(C4)C2)C3)cc1 for me?
a: label 0

q: Could you do the same for CC[C@@]1(O)C(=O)OCc2c1cc1n(c2=O)Cc2c-1nc1ccccc1c2/C=N\NC(=O)C(C)N (stereo partly drawn) , please?
a: label 1

q: Now this one: Oc1ccnc(SCc2ccc(Cl)cc2)n1
a: label 0

q: Could you do the same for COC(=O)[C@]1(c2cc3ccccc3n2S(=O)(=O)c2ccccc2)CC2CN(C(C)=O)C1CC2=O (stereo partly drawn) , please?
a: label 0

q: Next: CCOC(=O)C(=O)N/N=C1\C(=O)Nc2ccccc21
a: label 0

q: Now consider O=C(OCc1ccccc1)N1CCNCCNCCN(C(=O)OCc2ccccc2)CCNCC1 .
a: label 0

q: What about this compound? CCCOP(=S)(N1CC1)N1CC1
a: label 0

q: Please give the result for C=C1C(=O)O[C@@H]2/C=C(\C)CC/C=C(/COC(C)=O)C[C@@H](OC(C)=O)[C@@H]12 too.
a: label 0

q: And for Cn1c2ccccc2c(=O)c2c(O)cc3c(c21)C=CC1(CCCCC1)O3 ?
a: label 0

q: What about this compound? COC(=O)N[C@@H]1C[C@H]2CC[C@]1(O[Si](C(C)C)(C(C)C)C(C)C)C(=O)C2
a: label 0

* * *

Below is a list of entries, each paired with its recorded GI50 value.
# System: UACC-257
# TEST DESCRIPTION: NCI tumour cell line growth inhibition, 48 h
The source made the active and inactive calls. Rule as the data show it: active = GI50 up to about 1.1 µM and inactive = higher.

Example entries and their recorded answers appear below.
>>> print(df.to_string())
                                   compound  quantity          assay_value
0  C[C@]12CC[C@H](O)C[C@H]1CC[C@@H]1[C@@H]2CC[C@]2(C)[C@@H](C3=CC(=O)OC3)[C@@H](O)C[C@]12O      GI50    2.2 µM (inactive)
1  CC1(C)OC2C(CO)OC(n3ccc(=O)[nH]c3=O)C2O1 (centres undefined)      GI50  > 100 µM (inactive)
2  Nn1c(CCCCCCCCc2nnc(-c3c(O)ccc4ccccc34)n2N)nnc1-c1c(O)ccc2ccccc12      GI50  > 100 µM (inactive)
3  Cn1c(=O)n(-c2c3ccccc3c(Cl)c3ccccc23)n(C(C)(C)C)c1=O      GI50  > 100 µM (inactive)
4     COC(OC)c1cccc2c1C(=O)CCC1(CC2)OCCCCO1      GI50  > 100 µM (inactive)
5  C/C(CN1C(=O)c2ccccc2C1=O)=N\NS(=O)(=O)c1cccc([N+](=O)[O-])c1      GI50  > 100 µM (inactive)

Turning now to a further compound:
q: Give recorded GI50 with UACC-257 for the following compound: CCN(CC)CCO[Si](OCCN(CC)CC)(OCCN(CC)CC)OCCN(CC)CC
a: > 100 µM (inactive)
